Attribution: patent US20220306762A1

# TARGET OR SYSTEM: T1, His-tagged cynomolgus monkey CD38 (ACRO Biosystems cat #CD8-05223) (cynomolgus monkey, UniProt Q5VAN0 43-301)
# T1 construct: bought recombinant protein with His tag
# METHOD: SPR, captured scFv-Fc, His-CD38 analyte;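 also: SPR on a Carterra LSA, scFv-Fc captured by anti-human Fc on HC30M chip, His-tagged CD38 (human, mouse, cynomolgus) flowed as analyte in eight 1:2 steps from 400 nM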
PROPERTY MEASURED: log10 Kd (log10 of the value in nM)
Plainly stated, the numbers are log10 of Kd given in nM.

Worked examples follow.
BINDER	log10 Kd
40769p1.1.B8 (scFv, V domains shown, tested as scFv-Fc supernatant) VH: EVQLLESGGGLVQPGGSLRLSCAASGFTFEDYAMSWVRQAPGKGLEWVSVISSKGGSTSNADSVKGRFTISRDNSKNTLYLQMNSLRAEDTAVYYCAKGMERQYYSYNAMDVWGQGTTVTVSS VL: QSVLTQPPSASGTPGQRVTISCSGSNSNIDVDYVYWYQQLPGTAPRLLIYKDDQRPSGVPDRFSGSKSGTSASLAISGLQSEDEADYYCATWDDNLNSWLFGGGTKLTVL	0.21
40596p1.G10 (scFv, V domains shown, tested as scFv-Fc supernatant) VH: EVQLLESGGGLVQPGGSLRLSCAAPGFDFSKNAMSWVRQAPGKGLEYVAGSGWSGSFIFYADSVKGRFTVSRDNSENTLYLQMSSLRAEDTAVYYCAKNPGFGEMDVWGQGTTVTVSS VL: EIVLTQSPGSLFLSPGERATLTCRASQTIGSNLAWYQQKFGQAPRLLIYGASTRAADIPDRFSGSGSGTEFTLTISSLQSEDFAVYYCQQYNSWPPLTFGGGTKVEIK	1.75
40769p1.2.B4 (scFv, V domains shown, tested as scFv-Fc supernatant) VH: EVQLLESGGDLVQPGGSLRLSCGASGFTFSDHYMSWVRQAPGKGLEWVADISARGSNTWYADSVKGRFTISRDNSENTLYLQMNSLRAEDTAVYYCAKNWNYNYGMDVWGHGTTVTVSS VL: QSVLTQAPSASGTPGQRVTISCSGSSIQNNYVSWYQQLPGTAPKLLIYRNFERPSGVPDRFSASKSGTSASLAISGLQSEDEADYYCASWDDSLNWVFGGGTKLTVL	0.37

I'd like to know its log10 Kd. The binder in question is 40596p1.H7 (scFv, V domains shown, tested as scFv-Fc supernatant) VH: EVQLLESGGGLVQPGGSLRLSCAASGFDFSTYAMTWVRQAPGKGLEWVAGNGWSGSFTYYADSVKGRFTVSRDNSKNTLYLQMNSLRAEDTAVYYCTRNPGFGEMDVWGQGTTVTVSS VL: EIVLTQSPGTLRLSPGERATLSCRASQTVGTTLAWYQQKPGQAPRLLIHGASTRATDIPDRFSGSGSGTEFTLTISSLQSEDFADYYCQQYKSWPPLTFGGGTKVEIK 2.06

Follow-up entry: 40596p1.A5 (scFv, V domains shown, tested as scFv-Fc supernatant) VH: EVQLLESGGGLVQPGGSLRLSCAASGFDFSNNAMSWVRQAPGKGLEYVAGSGWSGSFIFYADSVKGRFTVSRDNSENTLYLQMNSLRAEDTAVYYCAKNPGFGEMDVWGQGTTVTVSS VL: EIVLTQSPGSLSLSPGERATLRCRASQSIGSNLAWYQQKPGQAPSLLIYGASTRAADIPDRFSGSGSGTEFTLTITSLQSEDFAVYYCQQYNSWPPLTFGGGTKVEIK 1.13
